Below, each of the compounds is paired with its reported IC50 value.
Test system: A549
Format: cell-based, human
Settings: Table 13; MTT; A549 lung cancer
Note: a bare number is incomplete; add the unit.

* CC[C@@]1(O)C(=O)OCc2c1cc1n(c2=O)Cc2cc3cc4c(cc3nc2-1)OCO4 [FL118, 10,11-methylenedioxy-camptothecin] | 81.8 nM

Could you now look at the following compound, please?
Exam item: Could you share which IC50 value was measured for CCc1c2c(nc3ccc(O)cc13)-c1cc3c(c(=O)n1C2)COC(=O)[C@]3(O)CC [SN38, reference compound] ?
Marked response: 475 nM

----------
Test system: HeLa
Assay type: cell-based, human
Below, each of the compounds is paired with its reported log10 IC50 value.
Please interpret these as log10 of IC50 where IC50 is in nM.

Answered examples (8):
- CC[C@@]1(O)C(=O)OCc2c1cc1n(c2=O)Cc2c-1nc1cc3c(cc1c2-c1ccc(OC(F)(F)F)cc1)OCO3: 2.60
- CC[C@@]1(O)C(=O)OCc2c1cc1n(c2=O)Cc2c-1nc1cc3c(cc1c2-c1cc(F)cc(OC)c1)OCO3: 2.09
- CC[C@@]1(O)C(=O)OCc2c1cc1n(c2=O)Cc2c-1nc1cc3c(cc1c2-c1ccc(C)c(F)c1)OCO3: 1.34
- CC[C@@]1(O)C(=O)OCc2c1cc1n(c2=O)Cc2c-1nc1cc3c(cc1c2-c1cc(F)cc(F)c1)OCO3: 1.55
- CC[C@@]1(O)C(=O)OCc2c1cc1n(c2=O)Cc2c-1nc1cc3c(cc1c2-c1cccc(C(F)(F)F)c1)OCO3: 1.31
- CC[C@@]1(O)C(=O)OCc2c1cc1n(c2=O)Cc2c-1nc1cc3c(cc1c2-c1cccc(OC(F)(F)F)c1)OCO3: 1.11
- CC[C@@]1(O)C(=O)OCc2c1cc1n(c2=O)Cc2c-1nc1cc3c(cc1c2-c1cc(C)cc(F)c1)OCO3: 1.75
- CC[C@@]1(O)C(=O)OCc2c1cc1n(c2=O)Cc2c-1nc1cc3c(cc1c2-c1cccc(F)c1)OCO3: 1.54

Exam item: Lab request: please report log10 IC50 under test system HeLa for CCOc1ccc(-c2c3c(nc4cc5c(cc24)OCO5)-c2cc4c(c(=O)n2C3)COC(=O)[C@]4(O)CC)cc1F
Marked response: 1.63

Exam item: Then CC[C@@]1(O)C(=O)OCc2c1cc1n(c2=O)Cc2c-1nc1cc3c(cc1c2-c1ccc(F)cc1)OCO3 ?
Marked response: 1.05

Exam item: Then CC[C@@]1(O)C(=O)OCc2c1cc1n(c2=O)Cc2c-1nc1cc3c(cc1c2-c1ccc(OC)c(F)c1)OCO3 ?
Marked response: 1.39

Exam item: Then CC[C@@]1(O)C(=O)OCc2c1cc1n(c2=O)Cc2c-1nc1cc3c(cc1c2-c1ccc(F)c(F)c1)OCO3 ?
Marked response: 1.60

Exam item: Then CC[C@@]1(O)C(=O)OCc2c1cc1n(c2=O)Cc2c-1nc1cc3c(cc1c2-c1ccc(F)c(C)c1)OCO3 ?
Marked response: 1.56

----------
Tested on: A549
Assay: MTT assay A549
Type: cell-based, human
Details: Table 9
Below, each of the compounds is paired with its reported IC50/EC50 value.
Record the value in nM, omitting the unit from your answer.

Answered examples (3):
- CC[C@@]1(O)C(=O)OCc2c1cc1n(c2=O)Cc2c-1nc1cc3c(cc1c2-c1cccnc1)OCO3: 2.24
- CC[C@@]1(O)C(=O)OCc2c1cc1n(c2=O)Cc2c-1nc1cc3c(cc1c2-c1ccco1)OCO3: 0.39
- CC[C@@]1(O)C(=O)OCc2c1cc1n(c2=O)Cc2c-1nc1cc3c(cc1c2-c1ccc(CO)cc1)OCO3: 1.28

Exam item: Could you share which IC50/EC50 value was measured for CC[C@@]1(O)C(=O)OCc2c1cc1n(c2=O)Cc2c-1nc1cc3c(cc1c2-c1cc(C(F)(F)F)cc(C(F)(F)F)c1)OCO3 ?
Marked response: 5.29

Exam item: Then CC[C@@]1(O)C(=O)OCc2c1cc1n(c2=O)Cc2c-1nc1cc3c(cc1c2-c1cnn(C)c1)OCO3 ?
Marked response: 2.29

Exam item: Then CC[C@@]1(O)C(=O)OCc2c1cc1n(c2=O)Cc2c-1nc1cc3c(cc1c2-c1cccs1)OCO3 ?
Marked response: 1.2

Exam item: Then CC[C@@]1(O)C(=O)OCc2c1cc1n(c2=O)Cc2c-1nc1cc3c(cc1c2-c1ccsc1)OCO3 ?
Marked response: 1.99

Exam item: Then CC[C@@]1(O)C(=O)OCc2c1cc1n(c2=O)Cc2c-1nc1cc3c(cc1c2-c1ccoc1)OCO3 ?
Marked response: 0.92

Exam item: Then CC[C@@]1(O)C(=O)OCc2c1cc1n(c2=O)Cc2c-1nc1cc3c(cc1c2-c1ccncc1)OCO3 ?
Marked response: 73.4
